Assay: In vivo pharmacokinetic study
Conditions: mouse, plasma, ip; BALB/c mice, i.p., 5 mg/kg; read-out: F (%), bioavailability
Experimental: MPH-5 was administered intraperitoneally to BALB/c mice at a dose of 5 mg/kg. The blood samples (0.25 mL) were collected at 0.25, 0.5, 1, 2, 4, 8, 16 and 24 h after dosing and centrifuged to obtain the plasma fraction. Plasma samples (50 μL) were transferred into a 96-well plate, followed by the addition of an internal standard solution of methanol/acetonitrile (1:1, v/v) (200 μL). After vortexing for 5 min, the mixture was centrifuged (12,000 rpm for 5 min) to obtain the supernatant (60 μL). […]
Attribute measured: bioavailability (%)
Give a bare numeral; the unit % is implied.

For the molecule `Cn1cc(-c2cc3cnc(Nc4ccc(-c5cncn5/C=C/C(=O)NO)cc4Cl)cc3n2C(=O)OC(C)(C)C)cn1` , what bioavailability is on record? 85
